// Compound Myofibroblast Cytotoxicity Activity collected for hDMFa myofibroblast cells
Structures can show the parent of a compound that is named as a salt.

Worked set:
compound	assay value
O=C(O)Cc1cc(I)c(Oc2ccc(O)c(I)c2)c(I)c1	+++
NC(=O)c1cccnc1 [Cmpd 705, Niacinamide]	+
CCc1ccc(CCOc2ccc(CC3SC(=O)NC3=O)cc2)nc1 (stereo not drawn) [Cmpd 785, Pioglitazone HCl]	+++
N=C(N)NC(=O)c1nc(Cl)c(N)nc1N [Cmpd 105, Amiloride HCl dihydrate]	++
O=C1O[C@H]([C@@H](O)CO)C(O)=C1O	+

Form entry - test system: hDMFa myofibroblast cells; read-out: Compound Myofibroblast Cytotoxicity Activity; compound: Clc1ccc(C(Cn2ccnc2)OCc2ccc(Sc3ccccc3)cc2)c(Cl)c1 (stereo not drawn) [Cmpd 452, Fenticonazole Nitrate]
++++

Form entry - test system: hDMFa myofibroblast cells; read-out: Compound Myofibroblast Cytotoxicity Activity; compound: "Oc1ccc(C=Cc2cc(O)cc(O)c2)cc1"
++

Form entry - test system: hDMFa myofibroblast cells; read-out: Compound Myofibroblast Cytotoxicity Activity; compound: "C[C@H](CCC(=O)NCC(=O)O)[C@H]1CC[C@H]2[C@@H]3[C@H](O)C[C@@H]4C[C@H](O)CC[C@]4(C)[C@H]3C[C@H](O)[C@]12C"
++++

Form entry - test system: hDMFa myofibroblast cells; read-out: Compound Myofibroblast Cytotoxicity Activity; compound: O=C(O)C1=C(CSc2nnnn2CS(=O)(=O)O)CS[C@@H]2[C@H](NC(=O)[C@H](O)c3ccccc3)C(=O)N12 [Cmpd 232, Cefonicid (sodium salt)]
++++

###

system: hDMFa myofibroblast cells
Counter-ions that a name gives are not always drawn.
property: Compound Myofibroblast Cytotoxicity Activity

compound	assay value
CC(=O)CCC(=O)O	++
O=C([O-])c1ccccc1.[Na+] [Cmpd 870, Sodium benzoate]	++++
Cc1cn(-c2cc(NC(=O)c3ccc(C)c(Nc4nccc(-c5cccnc5)n4)c3)cc(C(F)(F)F)c2)cn1 [Cmpd 712, Nilotinib monohydrochloride monohydrate]	+++
CCOC(=O)/C=C(C)/C=C/C=C(C)/C=C/c1c(C)cc(OC)c(C)c1C [Cmpd 442, Etretinate]	+++

Please turn your attention to the following entry.
Form entry - test system: hDMFa myofibroblast cells; read-out: Compound Myofibroblast Cytotoxicity Activity; compound: "CC(=O)Nc1c(I)c(NC(C)=O)c(I)c(C(=O)O)c1I"
++

###

system: hDMFa myofibroblast cells
property: Compound Myofibroblast Cytotoxicity Activity

compound	assay value
C=C1CC[C@H]2C[C@@H]1C2(C)C [Cmpd 22, (1S)-(-)-β-Pinene]	++
C=C1CC[C@H](O)C/C1=C/C=C1\CCC[C@]2(C)[C@@H]([C@H](C)CCCC(C)(C)O)CC[C@@H]12 [Cmpd 202, Calcifediol]	+++
CCOC(=O)C1=C[C@]2(CC)CCCN3CCc4c(n1c1ccccc41)[C@@H]32 [Cmpd 1006, Vinpocetine]	+++
C=C1CC[C@H](O)C/C1=C/C=C1\CCC[C@]2(C)[C@@H]([C@H](C)CCCC(C)C)CC[C@@H]12 [Cmpd 1009, Vitamin D3]	+++
CC1=CC[C@@H]2C[C@H]1C2(C)C [Cmpd 19, (1R)-(+)-α-Pinene]	+
CN1CCN(c2ccc(C(=O)Nc3n[nH]c4ccc(Cc5cc(F)cc(F)c5)cc34)c(NC3CCOCC3)c2)CC1 [Cmpd 419, Entrectinib]	+++
C[C@@H](Oc1cc(-c2cnn(C3CCNCC3)c2)cnc1N)c1c(Cl)ccc(F)c1Cl [Cmpd 27, (R)-Crizotinib]	++++
COc1ccc(C(CN(C)C)C2(O)CCCCC2)cc1 (stereo not drawn) [Cmpd 998, Venlafaxine]	++

Please turn your attention to the following entry.
Return reported Compound Myofibroblast Cytotoxicity Activity; argument: N[C@@H](Cc1c[nH]c2ccccc12)C(=O)O [Cmpd 615, L-Tryptophan]
++
